- system.under.test: canine CD3 on canine T cells (canine PBMC) (canine, UniProt P27597 22-202)
- Sequence (P27597 22-202 limits assumed, chain 1 of 3): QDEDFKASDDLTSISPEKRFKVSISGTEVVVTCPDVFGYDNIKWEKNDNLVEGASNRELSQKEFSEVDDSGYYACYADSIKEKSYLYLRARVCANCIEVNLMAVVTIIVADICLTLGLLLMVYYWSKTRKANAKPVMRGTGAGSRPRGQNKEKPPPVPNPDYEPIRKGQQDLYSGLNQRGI
- Sequence (chain, as listed by the source limits assumed, chain 2 of 3): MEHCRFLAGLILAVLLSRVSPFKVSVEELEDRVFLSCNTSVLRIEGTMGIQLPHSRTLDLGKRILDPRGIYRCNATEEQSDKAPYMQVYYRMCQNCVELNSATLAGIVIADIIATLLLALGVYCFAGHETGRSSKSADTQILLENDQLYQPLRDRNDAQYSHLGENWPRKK
- Sequence (chain, as listed by the source limits assumed, chain 3 of 3): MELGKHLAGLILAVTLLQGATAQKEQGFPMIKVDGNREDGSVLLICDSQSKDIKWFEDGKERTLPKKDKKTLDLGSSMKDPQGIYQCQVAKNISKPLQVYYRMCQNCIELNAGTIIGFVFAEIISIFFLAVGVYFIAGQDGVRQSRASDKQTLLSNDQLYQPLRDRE
- measurement.notes: cell-based or functional assay
outcome.measure: Ki67 Proliferation, Day 6, IS
No unit in the answer, only the number.

Below, 4 binders whose answers are already recorded.
PMX180 (monospecific anti-canine CD3, canine IgG-B effector function deficient Fc) (antibody, V domains shown) VH: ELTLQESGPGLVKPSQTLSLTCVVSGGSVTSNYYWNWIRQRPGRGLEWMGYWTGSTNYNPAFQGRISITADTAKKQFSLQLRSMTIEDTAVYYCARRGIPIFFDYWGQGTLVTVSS VL: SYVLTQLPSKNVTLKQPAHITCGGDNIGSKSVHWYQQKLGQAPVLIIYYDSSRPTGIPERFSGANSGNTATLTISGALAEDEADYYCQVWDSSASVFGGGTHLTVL
1.2
PMX193 (monospecific anti-canine CD3, canine IgG-B effector function deficient Fc) (antibody, V domains shown) VH: EVQLVESGGDLVKPGGSLRLSCVASGFTFSTYHMSWVRQAPGKGLQWVAYISSGGSRTNYADAVKGRFTISRDNAKNTLYLQMNSLRAEDAAVFYCARHYGSSLFDYWGQGTLVTVSS VL: DIVMTQTPLSLSVSPGEPASISCKASQSLLHINGNTYLYWFRQKPGQSPQRLIYKVSNRDPGVPDRFSGSGSGTDFTLRISRVEADDAGVYYCGQGIQDPTFGKGTHLEIK
0.64
PMX168 (monospecific anti-canine CD3, canine IgG-B effector function deficient Fc) (antibody, V domains shown) VH: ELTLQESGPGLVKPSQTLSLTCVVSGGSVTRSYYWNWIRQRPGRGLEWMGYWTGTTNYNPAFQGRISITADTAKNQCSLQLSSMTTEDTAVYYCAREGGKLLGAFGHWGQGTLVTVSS VL: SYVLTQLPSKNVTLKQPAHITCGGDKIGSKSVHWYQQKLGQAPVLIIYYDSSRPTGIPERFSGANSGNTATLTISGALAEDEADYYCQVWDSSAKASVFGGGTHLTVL
1.57
PMX197 (monospecific anti-canine CD3, canine IgG-B effector function deficient Fc) (antibody, V domains shown) VH: ELTLQESGPGLVKPSQTLSLTCLVSGGSVTRSYYWNWIRQRPGRGLEWMGYWTGSTNYNPAFQGRISIIPDTAKNQFSLQLTSMTTDDTAIYFCAREGGRTLGAFADWGQGTLVTVSS VL: SYVLTQLPSKNVTLKQPAHITCGGDKIGSKNVHWYQQKLGQAPVLIIYYDSSRPTGIPERFSGANSGNTATLTISGALAEDEADYYCQVWDSSAKASVFGGGTHLTVL
1.43

Shift focus to the following entry.
Query: Data request, read-out Ki67 Proliferation, Day 6, IS, for PMX191 (monospecific anti-canine CD3, canine IgG-B effector function deficient Fc) (antibody, V domains shown) VH: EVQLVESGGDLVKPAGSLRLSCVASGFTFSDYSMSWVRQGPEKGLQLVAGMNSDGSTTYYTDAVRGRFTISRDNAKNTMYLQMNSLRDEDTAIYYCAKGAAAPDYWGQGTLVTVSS VL: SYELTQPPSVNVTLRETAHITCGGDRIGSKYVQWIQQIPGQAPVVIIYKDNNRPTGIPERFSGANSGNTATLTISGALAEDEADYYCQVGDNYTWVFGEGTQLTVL
Result: 0.66
